Measurement Target: serine acetyltransferase
Assay Method Text: Serine acetyltransferase enzyme activity test with and without L-cysteine (inhibitor constant Ki, specific activity)
Assay type: biochemical, E. coli
Details: Table 6; carboxyterminal deletions; inhibitor L-cysteine
Measured Metric: Ki
Please give the number followed by its unit.

**Query** Look at this molecule and give its reported Ki. cysE-Del259: carboxyterminal deletion of 14 amino acids, terminal His259 (protein, UniProt P0A9D4 1-259, looked up, fragment) MSCEELEIVWNNIKAEARTLADCEPMLASFYHATLLKHENLGSALSYMLANKLSSPIMPAIAIREVVEEAYAADPEMIASAACDIQAVRTRDPAVDKYSTPLLYLKGFHALQAYRIGHWLWNQGRRALAIFLQNQVSVTFQVDIHPAAKIGRGIMLDHATGIVVGETAVIENDVSILQSVTLGGTGKSGGDRHPKIREGVMIGAGAKILGNIEVGRGAKIGAGSVVLQPVPPHTTAAGVPARIVGKPDSDKPSMDMDQH
**Result** 7.5 µM
